Data credit: patent US20090117613A1

# ASSAY TARGET: Geobacillus kaustophilus Old Yellow Enzyme (GkOYE, YP—148185.1) mutant H164A/H167A (Geobacillus kaustophilus, UniProt Q5KXG9, H164A/H167A)
# Sequence (Q5KXG9 whole entry H164A/H167A): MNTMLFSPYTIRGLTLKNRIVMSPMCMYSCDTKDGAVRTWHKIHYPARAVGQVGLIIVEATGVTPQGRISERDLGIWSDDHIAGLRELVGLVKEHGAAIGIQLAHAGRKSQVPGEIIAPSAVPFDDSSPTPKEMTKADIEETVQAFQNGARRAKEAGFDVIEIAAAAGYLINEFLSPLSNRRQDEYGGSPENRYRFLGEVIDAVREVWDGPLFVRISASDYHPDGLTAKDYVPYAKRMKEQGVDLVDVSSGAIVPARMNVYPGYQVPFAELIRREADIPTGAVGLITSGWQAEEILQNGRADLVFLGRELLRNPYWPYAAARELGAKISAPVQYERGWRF
# ASSAY INFO: Titration of GkOYE double mutant H164A/H167A with pHBA
ASSAY READOUT: Kd

Problem: Form field: reported Kd of O=Cc1ccc(O)cc1
Solution: 1 to 10 mM

* * *

# ASSAY TARGET: Geobacillus kaustophilus Old Yellow Enzyme (GkOYE, YP—148185.1) mutant Y28F (Geobacillus kaustophilus, UniProt Q5KXG9, Y28F)
# Sequence (Q5KXG9 whole entry Y28F): as the sequence (Q5KXG9 whole entry H164A/H167A) above, with Y28F, A164H, A167H counted along it
# ASSAY INFO: Titration of GkOYE mutant Y28F with pHBA
ASSAY READOUT: Kd

Problem: Field request: Kd | item: O=Cc1ccc(O)cc1 [pHBA]
Solution: 1 to 10 mM
